Reference for the values: paper PMC9866191

- System: SK-MEL-5
- Assay: NCI-60 one-dose screen
- Assay type: cell-based
- Test Context: Homo sapiens; SK-MEL-5, Melanoma panel; single dose 10^−5 M; read-out: Growth inhibition %
Observed Property: inhibition at 10 µM (%)
Numeric only. Scale: %

{"Smiles Entry": "Fc1ccccc1CNc1c2ccccc2nc2ccccc12", "Quantity Unit": "%", "inhibition at 10 µM": 39.3}
{"Smiles Entry": "Fc1cccc(CNc2c3ccccc3nc3ccccc23)c1", "Quantity Unit": "%", "inhibition at 10 µM": 39.5}

# ---- query compound ----
Input "Clc1ccccc1CNc1c2ccccc2nc2ccccc12" . Output inhibition at 10 µM: 58.2
